src = BindingDB's records for doi:10.3109/14756366.2011.617745

// log10(Ki) collected for Carbonic anhydrase 2 (Homo sapiens)
Recall that a logarithmic scale is used here: each number is log10 of Ki in nM.

Q: Enter reported log10(Ki) observed with Carbonic anhydrase 2 (Homo sapiens) for "Cc1ccc(S(=O)(=O)Nc2ccc3ccccc3c2)cc1"
Result: 2.79

Q: Now consider "Nc1ccc(S(=O)(=O)Nc2ccccn2)cc1" .
Result: 2.44

Q: Now consider Cc1ccc(NS(=O)(=O)c2ccc(C)cc2)cc1 [Carbonic anhydrase inhibitors (CAIs), 1] .
Result: 3.01

Q: Now consider "Cc1ccc(S(=O)(=O)Nc2ccccc2)cc1" .
Result: 4.16

Q: Now consider "Cc1ccc(S(=O)(=O)Nc2ccccc2[N+](=O)[O-])cc1" .
Result: 2.01

---

Measurement target: Carbonic anhydrase 1 (Homo sapiens, UniProt P00915)
Sequence (P00915 whole entry): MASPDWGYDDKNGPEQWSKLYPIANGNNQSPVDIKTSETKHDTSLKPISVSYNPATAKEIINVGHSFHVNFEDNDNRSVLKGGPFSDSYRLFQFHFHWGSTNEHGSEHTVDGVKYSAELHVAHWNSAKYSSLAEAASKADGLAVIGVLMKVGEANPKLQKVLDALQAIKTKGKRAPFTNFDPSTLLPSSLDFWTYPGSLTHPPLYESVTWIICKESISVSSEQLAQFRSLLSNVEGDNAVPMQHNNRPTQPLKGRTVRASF
Assay name: Esterase Activity Assay
Give log10(Ki) for every item shown.
Recall that a logarithmic scale is used here: each number is log10 of Ki in µM.

Q: Enter reported log10(Ki) observed with Carbonic anhydrase 1 (Homo sapiens, UniProt P00915) for "CCc1ccc(NS(=O)(=O)c2ccc(C)cc2)cc1"
Result: 2.65

Q: Now consider Cc1ccc(NS(=O)(=O)c2ccc(C)cc2)cc1 [Carbonic anhydrase inhibitors (CAIs), 1] .
Result: 1.70

Q: Now consider "Cc1ccc(S(N)(=O)=O)cc1" .
Result: 1.34

Q: Now consider "Cc1ccc(S(=O)(=O)Nc2ccccc2C#N)cc1" .
Result: 1.26

Q: Now consider "Nc1ccc(S(=O)(=O)Nc2ncccn2)cc1" .
Result: 1.42
